The compounds listed here are annotated with their hphob1 (hydrophobic derivatives 1).
- protocol: Chemical stability of insulin formulations by RPC (reverse phase chromatography)
- Type: physicochemical
- details: formulated human insulin, 3 Zn2+ per hexamer; 25° C.
quantity.measured: hphob1 (hydrophobic derivatives 1) (% formed/year)

> print(dat)
                                   compound                   quantity.measured    unit.abbrev  recorded.result
1    O=C(O)/C=C/c1ccc(/C=C2\SC(=O)NC2=O)cc1  hphob1 (hydrophobic derivatives 1)  % formed/year             6.14
2        CCN(CC)c1ccc(/C=C2\SC(=O)NC2=O)cc1  hphob1 (hydrophobic derivatives 1)  % formed/year             4.99
3       O=C(O)COc1cccc(/C=C2\SC(=O)NC2=O)c1  hphob1 (hydrophobic derivatives 1)  % formed/year             4.78
4  O=C(O)c1cc2cc(Br)ccc2cc1O [Example 533, 7-bromo-3-hydroxy-2-naphthoic acid]  hphob1 (hydrophobic derivatives 1)  % formed/year             5.67
